Entries and their measured Plant response rating, Kochia follow.
Tested on: kochia (Kochia scoparia)
experimental.details: Test E greenhouse herbicide test, pre- and postemergence
Type: in vivo
test.context: 125 g ai/ha, Postemergence; scale 0 to 100 (0 no effect, 100 complete control)

Solved entries:
smi=CC(=O)Oc1c(C)nn(C)c(=O)c1-c1c(C)cc(C)c2ccccc12 recorded_endpoint="Plant response rating, Kochia" val=70
smi=Cc1ccc2sc(C)c(-c3c(OC(=O)OC(C)C)c(C)nn(C)c3=O)c2c1 recorded_endpoint="Plant response rating, Kochia" val=95

Per the record, Cc1nn(C)c(=O)c(-c2ccc(F)c3ccccc23)c1O has Plant response rating, Kochia of 95

Lab note: Cc1ccc2ccccc2c1-c1c(OC(=O)OC(C)C)c(C)nn(C)c1=O gave Plant response rating, Kochia of 90

* * *

Below, each entry is listed alongside its reported Blackgrass plant response rating.
Tested on: blackgrass (Alopecurus myosuroides)
experimental.details: Test C greenhouse herbicide test, pre- and postemergence
Assay type: in vivo
test.context: Preemergence, 250 g ai/ha; scale 0 to 100, 0 no effect, 100 complete control
Number, no unit, nothing else.

Here are 2 compounds together with their reported answers.
smi=COC(=O)Oc1c(C)nn(C)c(=O)c1-c1c(C)sc2ccc(C)cc12 val=90
smi=Cc1ccc2ccccc2c1-c1c(O)c(C(F)(F)F)nn(C)c1=O val=70

# ---- query compound ----
The recorded Blackgrass plant response rating for entry Cc1cc(C)c2ccccc2c1-c1c(O)c(C)nn(C)c1=O equals 90

* * *

Tested on: oilseed rape (Brassica napus)
experimental.details: Test C greenhouse herbicide test, pre- and postemergence
Assay type: in vivo
test.context: Preemergence, 125 g ai/ha; scale 0 to 100, 0 is no effect, 100 is complete control
Source text: […]
Below: a set of entries, each annotated with reported Plant response rating, Oilseed Rape.
Give the value as a plain number.

Sample answers from the record:
smi=Cc1nn(C)c(=O)c(-c2ccc(Cl)c3ccccc23)c1O val=98
smi=CCC(=O)Oc1c(C)nn(C)c(=O)c1-c1ccc(F)c2ccccc12 val=60
smi=Cc1cc(C)c2ccccc2c1-c1c(O)c(C)nn(C)c1=O val=100
smi=Cc1nn(C)c(=O)c(-c2ccc(Br)c3ccccc23)c1O val=90
smi=COC(=O)Oc1c(C)nn(C)c(=O)c1-c1c(C)sc2ccc(C)cc12 val=50

Tested system oilseed rape (Brassica napus); Plant response rating, Oilseed Rape recorded for CCC(=O)Oc1c(C)nn(C)c(=O)c1-c1ccc(Br)c2ccccc12 was 90

CCc1ccc2ccccc2c1-c1c(O)c(C)nn(C)c1=O on oilseed rape (Brassica napus) gives Plant response rating, Oilseed Rape = 90

Query COC(=O)Oc1c(OC)nn(C)c(=O)c1-c1c(C)ccc2ccccc12 on oilseed rape (Brassica napus); Plant response rating, Oilseed Rape returned: 90

* * *

Reported Plant response rating, Oilseed Rape is given for each of the following compounds.
System: oilseed rape (Brassica napus)
experimental.details: Test D controlled growth environment herbicide test, pre- and postemergence
Format: in vivo
test.context: Preemergence, 125 g ai/ha; scale 0 to 100 (0 no effect, 100 complete control)
From the text: […]
Returns: the value as a bare number; no unit string appended.

Known results for compounds:
compound="COC(=O)Oc1c(C)nn(C)c(=O)c1-c1c(C)sc2ccc(C)cc12 [Compound 80]" recorded_endpoint="Plant response rating, Oilseed Rape" val=35
compound="Cc1nn(C)c(=O)c(-c2cccc3ccccc23)c1O [Compound 11]" recorded_endpoint="Plant response rating, Oilseed Rape" val=5
compound="Cc1nn(C)c(=O)c(-c2ccc(F)c3ccccc23)c1O [Compound 41]" recorded_endpoint="Plant response rating, Oilseed Rape" val=25

Record Cc1nn(C)c(=O)c(-c2c(C)sc3ccc(Br)cc23)c1O [Compound 22] has oilseed rape (Brassica napus) Plant response rating, Oilseed Rape equal to 0

Test item Cc1nn(C)c(=O)c(-c2ccc(Br)c3ccccc23)c1O [Compound 75] ; oilseed rape (Brassica napus); reported Plant response rating, Oilseed Rape was 100

The value of Plant response rating, Oilseed Rape recorded for Cc1ccc2ccccc2c1-c1c(OC(=O)OC(C)C)c(C)nn(C)c1=O [Compound 72] when tested on oilseed rape (Brassica napus) reads 15
